target: UniProtKB P11362; assay: Enzyme Assay
Sequence (P11362 whole entry): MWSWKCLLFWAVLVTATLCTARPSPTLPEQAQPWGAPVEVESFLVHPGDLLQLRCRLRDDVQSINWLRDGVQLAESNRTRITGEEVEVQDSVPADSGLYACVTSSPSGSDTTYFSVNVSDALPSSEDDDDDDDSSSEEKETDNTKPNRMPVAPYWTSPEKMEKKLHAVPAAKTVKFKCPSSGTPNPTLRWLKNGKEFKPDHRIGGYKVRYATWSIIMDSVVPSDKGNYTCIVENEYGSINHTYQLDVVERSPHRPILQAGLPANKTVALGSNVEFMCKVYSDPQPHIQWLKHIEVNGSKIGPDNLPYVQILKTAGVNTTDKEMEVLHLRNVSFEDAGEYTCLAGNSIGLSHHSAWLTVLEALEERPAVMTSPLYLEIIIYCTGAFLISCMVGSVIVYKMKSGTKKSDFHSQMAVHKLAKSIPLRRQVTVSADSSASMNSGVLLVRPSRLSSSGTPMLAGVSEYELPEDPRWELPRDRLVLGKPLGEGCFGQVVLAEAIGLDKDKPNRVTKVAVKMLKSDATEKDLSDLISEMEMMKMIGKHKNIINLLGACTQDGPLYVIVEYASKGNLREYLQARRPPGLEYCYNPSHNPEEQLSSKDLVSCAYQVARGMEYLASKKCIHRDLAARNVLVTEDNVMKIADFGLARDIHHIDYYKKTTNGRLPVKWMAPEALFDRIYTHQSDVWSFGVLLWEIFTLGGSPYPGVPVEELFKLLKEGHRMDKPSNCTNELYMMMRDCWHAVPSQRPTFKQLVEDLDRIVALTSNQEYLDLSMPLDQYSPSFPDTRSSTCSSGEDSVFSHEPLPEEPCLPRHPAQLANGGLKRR
Kindly supply the reported IC50 values for the records listed here.
Just the number please, in nM, no unit attached.

-- ask IC50 of `C=CC(=O)N[C@H]1CCC[C@@H](C(=O)N2CCC(n3cc(-c4cc(OC)c5c(C#N)cnn5c4)cn3)CC2)C1` on UniProtKB P11362?
-- reply 56

-- ask IC50 of `C=CC(=O)Nc1ccc(S(=O)(=O)N2CCC(n3cc(-c4cc(OC)c5c(C#N)cnn5c4)cn3)CC2)cc1` on UniProtKB P11362?
-- reply 113

-- ask IC50 of `C=CC(=O)N[C@H]1CC[C@H](C(=O)N2CC(n3cc(-c4cc(OC)c5c(C#N)cnn5c4)cn3)C2)C1` on UniProtKB P11362?
-- reply 393

Cited source: BindingDB's records for patent US12180207
